Data provenance: patent US20150005281A1

Listed here: items and their measured pIC50.
ASSAYED TARGET: JAK3 (Homo sapiens)
Construct: endogenous in cells; mixed lysate 1:2
Sequence (P52333 1-1124): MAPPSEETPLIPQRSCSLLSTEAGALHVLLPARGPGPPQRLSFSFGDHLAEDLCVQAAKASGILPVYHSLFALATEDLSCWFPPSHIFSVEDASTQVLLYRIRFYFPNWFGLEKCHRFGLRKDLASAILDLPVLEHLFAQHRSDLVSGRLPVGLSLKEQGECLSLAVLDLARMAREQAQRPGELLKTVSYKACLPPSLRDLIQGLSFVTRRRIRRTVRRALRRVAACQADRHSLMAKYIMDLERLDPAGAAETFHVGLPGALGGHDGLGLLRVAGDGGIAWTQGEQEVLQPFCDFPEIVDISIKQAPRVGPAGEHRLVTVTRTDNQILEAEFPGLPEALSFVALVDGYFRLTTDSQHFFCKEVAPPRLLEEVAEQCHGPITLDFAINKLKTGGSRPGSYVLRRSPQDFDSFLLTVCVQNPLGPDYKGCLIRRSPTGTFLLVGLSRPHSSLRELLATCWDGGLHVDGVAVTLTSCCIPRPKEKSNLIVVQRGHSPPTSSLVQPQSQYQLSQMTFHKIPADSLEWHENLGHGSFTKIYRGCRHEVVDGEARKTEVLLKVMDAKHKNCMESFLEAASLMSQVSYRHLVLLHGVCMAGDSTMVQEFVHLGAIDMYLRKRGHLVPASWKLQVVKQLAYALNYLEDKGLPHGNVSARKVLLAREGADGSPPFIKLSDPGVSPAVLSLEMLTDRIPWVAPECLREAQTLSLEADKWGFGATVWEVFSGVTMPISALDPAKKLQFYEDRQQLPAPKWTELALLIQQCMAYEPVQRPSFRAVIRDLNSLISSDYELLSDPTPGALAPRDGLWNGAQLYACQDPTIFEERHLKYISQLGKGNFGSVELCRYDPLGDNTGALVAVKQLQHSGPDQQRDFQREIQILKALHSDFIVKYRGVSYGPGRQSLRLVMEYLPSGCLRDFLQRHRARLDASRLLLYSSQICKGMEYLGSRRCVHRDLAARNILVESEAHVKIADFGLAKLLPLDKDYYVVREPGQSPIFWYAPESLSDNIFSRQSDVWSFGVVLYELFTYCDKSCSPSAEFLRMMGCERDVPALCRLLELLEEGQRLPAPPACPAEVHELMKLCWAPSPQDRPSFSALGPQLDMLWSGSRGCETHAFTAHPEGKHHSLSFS
PROTOCOL NOTES: Kinobeads assay with immunodetection, JAK3
EXPERIMENTAL PARAMETERS: Kinobeads assay, mixed Molt4/Ramos lysate; read-out: Inhibition values (IC50) JAK3
pIC50: −log10 of the molar value.

The recorded pIC50 for entry Cn1cc(Nc2ncc(Cl)c(NC[C@H]3CCCN3CCO)n2)cn1 equals 6.00 to 7.00

The recorded pIC50 for entry CNC(=O)Cn1cc(Nc2ncc(Cl)c(NC[C@H]3CCCN3)n2)cn1 equals 5.00 to 6.00

The recorded pIC50 for entry C=CC(=O)N1CCC[C@H]1CNc1nc(Nc2cnn(C)c2)ncc1Cl equals 5.00 to 6.00

====

ASSAYED TARGET: TYK2 (Homo sapiens)
Construct: endogenous in cells; mixed lysate 1:2
Sequence (P29597 whole entry): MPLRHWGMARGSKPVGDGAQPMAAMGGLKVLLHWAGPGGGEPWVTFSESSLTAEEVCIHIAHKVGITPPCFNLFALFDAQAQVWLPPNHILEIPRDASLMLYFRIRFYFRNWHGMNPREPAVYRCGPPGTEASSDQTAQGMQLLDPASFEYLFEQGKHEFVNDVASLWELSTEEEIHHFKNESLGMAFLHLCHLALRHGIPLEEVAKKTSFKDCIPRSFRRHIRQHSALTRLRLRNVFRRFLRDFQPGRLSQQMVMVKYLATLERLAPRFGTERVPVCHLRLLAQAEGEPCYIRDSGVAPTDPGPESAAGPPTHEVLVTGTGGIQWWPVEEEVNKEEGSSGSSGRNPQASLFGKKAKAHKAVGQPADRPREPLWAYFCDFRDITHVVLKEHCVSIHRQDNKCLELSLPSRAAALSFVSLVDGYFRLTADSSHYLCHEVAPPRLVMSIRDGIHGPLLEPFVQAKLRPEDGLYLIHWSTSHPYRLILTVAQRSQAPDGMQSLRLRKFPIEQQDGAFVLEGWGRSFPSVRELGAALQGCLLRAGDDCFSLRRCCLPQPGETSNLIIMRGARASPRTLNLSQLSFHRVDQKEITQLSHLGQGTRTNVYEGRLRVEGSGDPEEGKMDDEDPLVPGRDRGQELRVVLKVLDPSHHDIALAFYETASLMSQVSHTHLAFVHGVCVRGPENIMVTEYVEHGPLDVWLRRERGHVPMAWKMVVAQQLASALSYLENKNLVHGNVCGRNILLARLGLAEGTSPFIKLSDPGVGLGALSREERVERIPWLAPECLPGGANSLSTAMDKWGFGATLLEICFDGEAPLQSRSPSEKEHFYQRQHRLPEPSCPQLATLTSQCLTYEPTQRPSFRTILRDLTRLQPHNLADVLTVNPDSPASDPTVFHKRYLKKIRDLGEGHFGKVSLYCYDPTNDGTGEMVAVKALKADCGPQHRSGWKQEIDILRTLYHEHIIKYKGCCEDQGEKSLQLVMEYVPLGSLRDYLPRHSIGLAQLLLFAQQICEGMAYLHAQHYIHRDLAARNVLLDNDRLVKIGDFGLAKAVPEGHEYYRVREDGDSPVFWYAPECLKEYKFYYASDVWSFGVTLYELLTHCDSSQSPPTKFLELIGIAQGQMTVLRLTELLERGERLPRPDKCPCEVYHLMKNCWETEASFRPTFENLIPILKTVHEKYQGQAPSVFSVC
PROTOCOL NOTES: Kinobeads assay with immunodetection, TYK2
EXPERIMENTAL PARAMETERS: Kinobeads assay, mixed Molt4/Ramos lysate; read-out: Inhibition values (IC50) Tyk2
pIC50: −log10 of the molar value.
Listed here: items and their measured pIC50.

>  <MOL>
CC(C)NC(=O)Cn1cc(Nc2nccc(NC[C@H]3CCCN3CCS(C)(=O)=O)n2)cn1

>  <RESULT>
> 7.00

$$$$
>  <MOL>
Cn1cc(Nc2ncc(Cl)c(NC[C@H]3CCCN3S(=O)(=O)C3CC3)n2)cn1

>  <RESULT>
> 7.00

$$$$

The recorded pIC50 for entry Cn1cc(Nc2ncc(Cl)c(NC[C@H]3CCCN3C(=O)CCC#N)n2)cn1 equals > 7.00

The recorded pIC50 for entry CNC(=O)Cn1cc(Nc2ncc(Cl)c(NC[C@H]3CCCN3)n2)cn1 equals 5.00 to 6.00

The recorded pIC50 for entry C=CC(=O)N1CCCC[C@@H]1CNc1nc(Nc2cnn(C)c2)ncc1Cl equals 6.00 to 7.00

The recorded pIC50 for entry Cn1cc(Nc2ncc(Cl)c(NC[C@H]3CCN(S(C)(=O)=O)C3)n2)cn1 equals > 7.00

The recorded pIC50 for entry Cn1cc(Nc2ncc(Cl)c(NC[C@H]3CCCCN3S(C)(=O)=O)n2)cn1 equals > 7.00

The recorded pIC50 for entry Cn1cc(Nc2ncc(Cl)c(NC[C@H]3CCCN3CCNS(C)(=O)=O)n2)cn1 equals > 7.00

The recorded pIC50 for entry CS(=O)(=O)N1CCC[C@@H]1CNc1nc(Nc2cnn(CCO)c2)ncc1Cl equals > 7.00
